System: MDA-MB-231
test_method_notes: Growth inhibition of human MDA-MB-231 cells after 48 hrs by sulforhodamine B assay
Format: functional
condition_set: MDA-MB-231, 48 h
Note to self: use fulfilled only for GI50 readings below 10 µM; a reading exactly at 10 µM still gets not fulfilled.

smiles_str	cat
CC(=O)/C(=C/N1CCN(C(=O)c2ccco2)C1=S)C(=O)c1ccccc1	fulfilled
CCOC(=O)/C(=C/N1CCN(C(=O)c2ccco2)C1=S)C(=O)c1ccccc1	not fulfilled
N#CC(C#N)=CN1CCN(C(=O)c2ccco2)C1=S	fulfilled
COc1cc(C(=O)N2CCN(C(=O)c3cc(OC)c(OC)c(OC)c3)C2=S)cc(OC)c1OC	not fulfilled
N#CC(C#N)=CN1CCN(C(=O)c2ccccc2)C1=S	not fulfilled

Ask: Just wondering, is GI50 of N#C/C(=C\N1CCN(C(=O)c2ccco2)C1=S)C(N)=O below 10 µM?
Result: not fulfilled

Ask: Identify whether the compound O=C(c1cccs1)N1CCN(C(=O)c2cccs2)C1=S records GI50 below 10 µM.
Result: fulfilled

Ask: Is 10 µM strictly greater than the compound's reported GI50? compound: N#C/C(=C\N1CCN(C(=O)c2ccco2)C1=S)C(=O)Nc1ccc(Cl)cc1
Result: not fulfilled

====

Record form. Attribute: GI50. Fill in for each entry.
Tested on: DU-145
test_method_notes: Growth inhibition of human DU145 cells after 48 hrs by sulforhodamine B assay
Type: functional
condition_set: DU-145, 48 h
One number for each entry, in µM.

smiles_str	units_symbol	value_measured
CCOC(=O)/C(=C/N1CCN(C(=O)c2ccco2)C1=S)C(=O)c1ccccc1	µM	8
N#C/C(=C\N1CCN(C(=O)c2ccco2)C1=S)C(=O)Nc1ccc(Cl)cc1	µM	15.9
N#C/C(=C\N1CCN(C(=O)c2ccco2)C1=S)C(=O)c1ccccc1	µM	5
COC(=O)/C(C#N)=C/N1CCN(C(=O)c2ccco2)C1=S	µM	3.5
O=C(C(=CN1CCN(C(=O)c2ccco2)C1=S)C(=O)c1ccccc1)c1ccccc1	µM	12.4
N#C/C(=C\N1CCN(C(=O)c2ccco2)C1=S)C(N)=O	µM	29.8

Hey, can you go through the list below and give me GI50 for every item?
1. O=C(c1ccco1)N1CCN(C(=O)c2ccco2)C1=S
2. O=CN1CCN(C(=O)c2ccco2)C1=S
3. O=C(c1ccc(Cl)c(Cl)c1)N1CCN(C(=O)c2ccc(Cl)c(Cl)c2)C1=S
4. O=C(c1cc(Cl)cc(Cl)c1)N1CCN(C(=O)c2cc(Cl)cc(Cl)c2)C1=S
5. N#CC(C#N)=CN1CCN(C(=O)c2ccccc2)C1=S
6. N#CC(C#N)=CN1CCN(C(=O)c2ccco2)C1=S
7. O=C(c1ccc(Cl)cc1Cl)N1CCN(C(=O)c2ccc(Cl)cc2Cl)C1=S
8. COc1cc(C(=O)N2CCN(C(=O)c3cc(OC)c(OC)c(OC)c3)C2=S)cc(OC)c1OC

Result:
[2.7, 2.5, 14.7, 10.5, 24.4, 5.5, 30.6, 13.6]

Batch of 3 molecules: report GI50 for each.
1. COc1cc(C(=O)N2CCN(C=O)C2=S)cc(OC)c1OC
2. O=C(c1cccs1)N1CCN(C(=O)c2cccs2)C1=S
3. CC(=O)/C(=C/N1CCN(C(=O)c2ccco2)C1=S)C(=O)c1ccccc1

Result:
[19.6, 3.3, 11]
